Data provenance is ChEMBL document CHEMBL1130149.

Molecular target: Adrenergic receptor alpha-2 (Rattus norvegicus, UniProt P22086+P19328+P22909)
Sequence (P22086 whole entry): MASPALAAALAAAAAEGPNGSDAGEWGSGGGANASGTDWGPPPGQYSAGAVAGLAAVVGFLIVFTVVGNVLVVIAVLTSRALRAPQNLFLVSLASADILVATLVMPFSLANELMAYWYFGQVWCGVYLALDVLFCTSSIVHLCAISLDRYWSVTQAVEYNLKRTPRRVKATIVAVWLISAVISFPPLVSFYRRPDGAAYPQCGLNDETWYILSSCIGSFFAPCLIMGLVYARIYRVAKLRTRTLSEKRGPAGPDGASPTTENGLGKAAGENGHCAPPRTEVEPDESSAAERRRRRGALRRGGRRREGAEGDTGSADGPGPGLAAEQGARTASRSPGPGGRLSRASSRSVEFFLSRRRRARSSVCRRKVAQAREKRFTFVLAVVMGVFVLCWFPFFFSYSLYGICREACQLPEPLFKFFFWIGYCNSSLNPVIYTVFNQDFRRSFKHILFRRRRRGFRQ
Sequence (P19328 whole entry): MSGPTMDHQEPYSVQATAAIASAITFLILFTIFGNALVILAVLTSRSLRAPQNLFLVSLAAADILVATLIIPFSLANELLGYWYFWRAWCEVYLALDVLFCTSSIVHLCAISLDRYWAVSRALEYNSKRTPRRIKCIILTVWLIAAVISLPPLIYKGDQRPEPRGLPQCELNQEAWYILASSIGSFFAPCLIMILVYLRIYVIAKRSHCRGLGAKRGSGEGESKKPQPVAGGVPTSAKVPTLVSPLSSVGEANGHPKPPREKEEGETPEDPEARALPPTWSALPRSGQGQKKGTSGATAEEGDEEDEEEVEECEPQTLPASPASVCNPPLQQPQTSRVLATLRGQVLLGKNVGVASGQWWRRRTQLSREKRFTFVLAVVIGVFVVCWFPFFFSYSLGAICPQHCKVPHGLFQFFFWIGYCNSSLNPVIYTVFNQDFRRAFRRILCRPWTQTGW
Sequence (P22909 whole entry): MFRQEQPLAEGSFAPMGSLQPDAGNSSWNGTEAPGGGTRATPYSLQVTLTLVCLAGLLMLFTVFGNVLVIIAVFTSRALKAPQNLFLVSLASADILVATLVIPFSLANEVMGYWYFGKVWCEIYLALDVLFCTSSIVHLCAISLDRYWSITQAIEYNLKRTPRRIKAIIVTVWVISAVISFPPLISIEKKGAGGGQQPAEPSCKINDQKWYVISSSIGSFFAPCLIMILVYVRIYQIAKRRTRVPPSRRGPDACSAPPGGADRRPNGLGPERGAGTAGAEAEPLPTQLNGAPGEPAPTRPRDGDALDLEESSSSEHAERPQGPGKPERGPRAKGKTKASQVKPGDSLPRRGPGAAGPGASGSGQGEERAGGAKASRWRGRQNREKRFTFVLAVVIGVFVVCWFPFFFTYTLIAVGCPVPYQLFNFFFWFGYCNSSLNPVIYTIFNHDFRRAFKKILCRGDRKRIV
Assay: Displacement of [3H]rauwolscine from Alpha-2 adrenergic receptor of rat brain membranes
Format: cell membranes, Membrane
For each entry below, report its Ki value.
Dear colleague, please return just the value in nM, with no unit written.

IN: Please report the recorded Ki for C1=C(c2c[nH]cn2)c2cccc(OCc3ccccc3)c2CC1 .
OUT: 2670

IN: Now consider Cc1cccc2c1CCC=C2c1c[nH]cn1 and answer again.
OUT: 31

IN: Now consider Cc1cc(C)c2c(c1)C(c1c[nH]cn1)=CCC2 and answer again.
OUT: 232

IN: Now consider COc1ccc2c(c1)CCC=C2c1c[nH]cn1 and answer again.
OUT: 580
